Provide the reported Kd of each item.
- assay target: T1, N-terminal ECD protein of mouse FGFR3 with a terminal avidin tag (mouse, UniProt Q61851 21-369)
- T1 construct: extracellular domain; not shown: terminal avidin tag
- T1 sequence (looked up): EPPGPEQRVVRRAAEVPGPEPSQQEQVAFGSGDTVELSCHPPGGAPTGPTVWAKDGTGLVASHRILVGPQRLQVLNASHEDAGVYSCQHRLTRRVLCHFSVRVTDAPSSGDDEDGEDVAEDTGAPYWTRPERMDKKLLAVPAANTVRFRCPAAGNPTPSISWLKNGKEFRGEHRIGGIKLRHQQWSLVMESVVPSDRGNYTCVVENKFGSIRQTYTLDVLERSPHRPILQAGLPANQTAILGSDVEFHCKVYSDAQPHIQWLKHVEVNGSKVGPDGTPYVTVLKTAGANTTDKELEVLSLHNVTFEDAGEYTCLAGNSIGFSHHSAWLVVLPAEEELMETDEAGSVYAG
- experiment notes: SPR (Biacore), FGFR3 ECD immobilised on chip, antibody injected, 1:1 fit
Give bare numbers, in nM.

The examples below pair each entry with its known result.
KE42 (antibody, V domains shown, Mouse monoclonal antibody from a hybridoma; also called anti-FGFR3 antibody KE42) VH: EVQLQQSGPELVKPGASVKMSCKASGYTFTDYNMHWVKQSHGKSLQWIGYINPNNGGTNYNQNFKDKATLTVNKSSTTAYMELRSLTSEDSAVYYCARERDYDGSMDFWGQGTSVTVSS VL: DIQMTQSPSSLSASLGGKVTITCKASQDINKFIAWYQHKPGKGPRLLIHYTSTLQPGIPSRFSGSGSGRDYSFSISNLEPEDIATYFCLQYDNLLWTFGGGTKLEIK	0.81
KE58 (antibody, V domains shown, Mouse monoclonal antibody from a hybridoma; also called anti-FGFR3 antibody KE58) VH: EVQLQQSGPDLVKPGASVKISCKASGYTVTDYYMNWVKQSHGKSLEWIGDINPNNGVTTYNQKFKDKATLTVDKSSSTAYMELRSLTSEDSAVYYCAREEDFDGFDYWGQGTTLTVSS VL: DIVMTQSHKFMSTSVGDRVSITCKASQDVSTGVAWYQQKPGQSPQLLIYWASTRHTGVPDRFTGSGSGTDYILTIRSVQAEDLALYYCQQHYSTPLTFGAGTKLELK	5.5
KE94 (antibody, V domains shown, Mouse monoclonal antibody from a hybridoma; also called anti-FGFR3 antibody KE94) VH: QVQLQQSGAELVRPGASVTLSCKASGSTFTDFEIHWVKQTPVHGLEWIGAIDPETGGTAYNQKFKGKAILTAVKSSSTAYMGLRSLTSEDSAVYYCTRNYDGYSRTMDYWGQGTSVTVSS VL: NIMMTQSPSSLAVSAGEKVTMSCKSSQSVLYSSNQKNYLAWYQQKPGQSPKLLIYWASTRESGVPDRFTGSGSGTDFSLSISSVQTEDLAVYYCHQYLSSYTFGGGTRLEMK	2.1

For the next question, use this binder.
stdin: Value lookup for Kd; key = KE63 (antibody, V domains shown, Mouse monoclonal antibody from a hybridoma; also called anti-FGFR3 antibody KE63) VH: QVQLQQSGAELVRPGASVTLSCKASGSTFSDFEIHWVKQTPVHGLEWIGGIDPETGGTAYNQKFKGKAILTADRSSSTAYMELRSLTSEDSAVYYCTRNYDGYSQTMDYWGQGTSVTVSS VL: NIMMTQSPSSLAVSAGEKVTMSCKSSQSVLYSSNQKNYLAWYQQKPGQSPKLLIYWASTRESGVPDRFTGSGSGTDFTLTISSVQAEDLAVYYCHQYLSSYTFGGGTKLEMK
stdout: 6.7
